Taken from paper PMC11327602.

assay target: jack bean urease (Canavalia ensiformis, UniProt P07374)
Sequence (P07374 whole entry, looked up): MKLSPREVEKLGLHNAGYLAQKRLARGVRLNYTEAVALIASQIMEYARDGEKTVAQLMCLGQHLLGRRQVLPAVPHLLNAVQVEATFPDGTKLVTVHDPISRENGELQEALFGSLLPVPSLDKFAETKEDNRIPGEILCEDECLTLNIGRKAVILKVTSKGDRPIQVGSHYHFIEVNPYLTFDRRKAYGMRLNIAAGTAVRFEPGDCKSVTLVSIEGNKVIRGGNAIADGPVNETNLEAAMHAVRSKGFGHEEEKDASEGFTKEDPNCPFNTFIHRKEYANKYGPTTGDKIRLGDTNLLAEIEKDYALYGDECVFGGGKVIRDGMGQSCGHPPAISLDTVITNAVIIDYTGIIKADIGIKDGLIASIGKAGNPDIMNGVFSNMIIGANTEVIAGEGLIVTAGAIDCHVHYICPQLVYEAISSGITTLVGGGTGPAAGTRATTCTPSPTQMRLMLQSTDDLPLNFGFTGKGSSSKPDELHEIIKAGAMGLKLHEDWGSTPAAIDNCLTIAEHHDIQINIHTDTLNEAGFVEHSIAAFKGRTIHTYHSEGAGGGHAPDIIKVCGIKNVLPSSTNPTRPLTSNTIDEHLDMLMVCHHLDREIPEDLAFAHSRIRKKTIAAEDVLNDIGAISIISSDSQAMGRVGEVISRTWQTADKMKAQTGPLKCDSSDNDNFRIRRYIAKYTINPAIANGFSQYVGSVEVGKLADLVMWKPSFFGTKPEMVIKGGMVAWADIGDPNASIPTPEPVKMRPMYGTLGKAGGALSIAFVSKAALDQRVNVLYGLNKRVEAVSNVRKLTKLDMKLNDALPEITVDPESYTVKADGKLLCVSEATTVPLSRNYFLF
test: Urease inhibition assay
Assay type: biochemical
measured parameter: Types of inhibition (urease)

Look over these answered cases.
molecule	Types of inhibition (urease)
CN(c1nccs1)S(=O)(=O)c1ccc(F)cc1 [Compound 38]	Competitive
COc1ccc(S(=O)(=O)N(C)c2nccs2)cc1 [Compound 34]	Competitive
C=CCN(c1nccs1)S(=O)(=O)c1ccc(C)cc1 [Compound 26]	Non-competitive
C=CCN(c1nccs1)S(=O)(=O)c1ccc(F)cc1 [Compound 31]	Non-competitive
C=CCN(c1nccs1)S(=O)(=O)c1ccc(Br)cc1 [Compound 28]	Non-competitive
O=[N+]([O-])c1ccc(S(=O)(=O)N(Cc2ccccc2)c2nccs2)cc1 [Compound 25]	Non-competitive

Short answer for C=CCN(c1nccs1)S(=O)(=O)c1ccc([N+](=O)[O-])cc1 [Compound 32] : Types of inhibition (urease) was Non-competitive

Short answer for Cc1ccc(S(=O)(=O)N(Cc2ccccc2)c2nccs2)cc1 [Compound 19] : Types of inhibition (urease) was Competitive

Short answer for C=CCN(c1nccs1)S(=O)(=O)c1ccc(OC)cc1 [Compound 27] : Types of inhibition (urease) was Competitive

Short answer for CN(c1nccs1)S(=O)(=O)c1ccc([N+](=O)[O-])cc1 [Compound 39] : Types of inhibition (urease) was Non-competitive

Short answer for COc1ccc(S(=O)(=O)N(Cc2ccccc2)c2nccs2)cc1 [Compound 20] : Types of inhibition (urease) was Competitive
